- test description: Cytotoxicity against human glomerular mesangial cells incubated for 12 hrs by MTT assay
- Type: cell-based
- measurement conditions: Glomerular mesangial cell
Where a SMILES comes first, the peptide text is derived from it.
Exercise: for every item that follows, state its recorded pIC50.
One number for each entry, as −log10 of the molar value.

• CC[C@H](C)[C@H](NC(=O)[C@H](CCCNC(=N)N)NC(=O)[C@H](CCCCN)NC(=O)[C@H](Cc1ccccc1)NC(=O)[C@H](Cc1c[nH]c2ccccc12)NC(=O)CN)C(=O)N[C@@H](CCCCN)C(=O)N[C@H](C(=O)N[C@@H](Cc1ccccc1)C(=O)N[C@@H](Cc1c[nH]c2ccccc12)C(N)=O)[C@@H](C)O (H-GWFKRIKTFW-NH2) = 4.01

Task: What pIC50 value was documented for this compound, CC(C)C[C@H](NC(=O)[C@H](Cc1c[nH]c2ccccc12)NC(=O)CN)C(=O)N[C@@H](CCCCN)C(=O)N[C@@H](CCCNC(=N)N)C(=O)N[C@@H](Cc1c[nH]c2ccccc12)C(=O)N[C@@H](CCCCN)C(=O)N[C@H](C(=O)N[C@@H](CC(C)C)C(=O)N[C@@H](Cc1c[nH]c2ccccc12)C(N)=O)[C@@H](C)O (H-GWLKRWKTLW-NH2) ?
Result: 3.98

###

- Test system: Staphylococcus epidermidis
- test description: Antibacterial activity against Staphylococcus epidermidis ATCC 12228 incubated for 18 hrs by CLSI based broth dilution method
- Type: functional
Where a SMILES comes first, the peptide text is derived from it.
parameter: MIC (µM)
One number for each entry, in µM.

// solved cases for MIC follow
- CC[C@H](C)[C@H](NC(=O)[C@H](CCCNC(=N)N)NC(=O)[C@H](CCCCN)NC(=O)[C@H](Cc1ccccc1)NC(=O)[C@H](Cc1c[nH]c2ccccc12)NC(=O)[C@@H](N)CCCCN)C(=O)N[C@@H](CCCCN)C(=O)N[C@H](C(=O)N[C@@H](Cc1ccccc1)C(=O)N[C@@H](Cc1c[nH]c2ccccc12)C(N)=O)[C@@H](C)O (H-KWFKRIKTFW-NH2): 128
- NCCCC[C@H](NC(=O)[C@H](CCCCN)NC(=O)[C@H](Cc1c[nH]c2ccccc12)NC(=O)[C@H](CCCCN)NC(=O)[C@H](CCCCN)NC(=O)[C@H](Cc1c[nH]c2ccccc12)NC(=O)[C@H](Cc1c[nH]c2ccccc12)NC(=O)[C@@H](N)CCCCN)C(=O)N[C@@H](Cc1c[nH]c2ccccc12)C(=O)N[C@@H](Cc1c[nH]c2ccccc12)C(N)=O (H-KWWKKWKKWW-NH2): 4

Please examine the following record next.
Task: Recorded MIC for CC(C)C[C@H](NC(=O)[C@H](CC(C)C)NC(=O)[C@@H](NC(=O)[C@H](CCCCN)NC(=O)[C@H](Cc1ccccc1)NC(=O)[C@H](CCCNC(=N)N)NC(=O)[C@H](CCCCN)NC(=O)[C@H](CC(C)C)NC(=O)[C@H](CC(C)C)NC(=O)CN)[C@@H](C)O)C(N)=O (H-GLLKRFKTLL-NH2) , please?
Result: 16

###

- Tested on: Bacteria
- test description: Antibacterial activity against Gram-positive bacteria incubated for 18 hrs by CLSI based broth dilution method
- Format: functional
Where a SMILES comes first, the peptide text is derived from it.
parameter: MIC (µM)
Give bare numbers, in µM.

Sample answers from the record:
- CC(C)C[C@H](NC(=O)[C@H](Cc1ccccc1)NC(=O)CN)C(=O)N[C@@H](CCCCN)C(=O)N[C@@H](CCCNC(=N)N)C(=O)N[C@@H](Cc1ccccc1)C(=O)N[C@@H](CCCCN)C(=O)N[C@H](C(=O)N[C@@H](CC(C)C)C(=O)N[C@@H](Cc1ccccc1)C(N)=O)[C@@H](C)O (H-GFLKRFKTLF-NH2): 45.3
- CC(C)C[C@H](NC(=O)CN)C(=O)N[C@@H](CC(C)C)C(=O)N[C@@H](CCCCN)C(=O)N[C@@H](CCCNC(=N)N)C(=O)N[C@@H](CC(C)C)C(=O)N[C@@H](CCCCN)C(=O)N[C@H](C(=O)N[C@@H](CC(C)C)C(=O)N[C@@H](C)C(N)=O)[C@@H](C)O (H-GLLKRLKTLA-NH2): 128
- NCCCC[C@H](NC(=O)[C@H](CCCCN)NC(=O)[C@H](Cc1c[nH]c2ccccc12)NC(=O)[C@H](CCCCN)NC(=O)[C@H](CCCCN)NC(=O)[C@H](Cc1c[nH]c2ccccc12)NC(=O)[C@H](Cc1c[nH]c2ccccc12)NC(=O)[C@@H](N)CCCCN)C(=O)N[C@@H](Cc1c[nH]c2ccccc12)C(=O)N[C@@H](Cc1c[nH]c2ccccc12)C(N)=O (H-KWWKKWKKWW-NH2): 4.76
- CC[C@H](C)[C@H](NC(=O)[C@H](CCCNC(=N)N)NC(=O)[C@H](CCCCN)NC(=O)[C@H](Cc1ccccc1)NC(=O)[C@H](Cc1c[nH]c2ccccc12)NC(=O)CN)C(=O)N[C@@H](CCCCN)C(=O)N[C@H](C(=O)N[C@@H](Cc1ccccc1)C(=O)N[C@@H](Cc1c[nH]c2ccccc12)C(N)=O)[C@@H](C)O (H-GWFKRIKTFW-NH2): 11.3

Switching to the query record.
Task: Param item = CC(C)C[C@H](NC(=O)[C@H](Cc1c[nH]c2ccccc12)NC(=O)CN)C(=O)N[C@@H](CCCCN)C(=O)N[C@@H](CCCNC(=N)N)C(=O)N[C@@H](Cc1c[nH]c2ccccc12)C(=O)N[C@@H](CCCCN)C(=O)N[C@H](C(=O)N[C@@H](CC(C)C)C(=O)N[C@@H](Cc1c[nH]c2ccccc12)C(N)=O)[C@@H](C)O (H-GWLKRWKTLW-NH2) ; retrieve measured MIC.
Result: 26.9
